All values here come from patent US20230129258A1.

target: CD137 on Jurkat reporter cells (Promega kit CS196005) (UniProt Q07011); assay: cell-based or functional assay
Sequence (Q07011 24-255 limits assumed): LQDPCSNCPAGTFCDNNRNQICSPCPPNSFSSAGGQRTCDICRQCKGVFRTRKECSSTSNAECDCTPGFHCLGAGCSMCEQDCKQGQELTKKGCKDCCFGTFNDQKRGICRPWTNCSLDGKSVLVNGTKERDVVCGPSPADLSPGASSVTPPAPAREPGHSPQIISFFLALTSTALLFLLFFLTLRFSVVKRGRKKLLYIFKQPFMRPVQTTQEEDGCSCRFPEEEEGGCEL
Starred links: 1 amine or outer side, 2 acyl side, 3 side chain; linkers in the order of their positions; H or OH if unused. Positions of bridges follow the written chain, without caps; N, C: chain ends. Non-standard residues stand in square brackets, D forms with d. Chains are numbered I, II in the order given. No end group written: not given here. *: point of attachment. TATA = O=C(CC[*:1])N1CN(C(=O)CC[*:2])CN(C(=O)CC[*:3])C1; Hyp = O=C(O)[C@@H]1C[C@@H](O)CN1; hArg = N=C(N)NCCCC[C@H](N)C(=O)O; tBuAla = CC(C)(C)C[C@H](N)C(=O)O; Nle = CCCC[C@H](N)C(=O)O; Pent4ynoyl = C#CCCC(=O)*
measurement-kind: Fold Improvement over Emax (BCY9173), PC3 (fold)
Write it as a number; the unit fold goes unstated.

heterotandem bicyclic peptide complex BCY12491 (linker I:4-I:11-I:18, II:1-II:8-II:15 via TATA (inferred); also: N-(acid-PEG3)-N-bis(PEG3-azide) linker at chain 1 N-terminus, joined to dLys(PYA)4 of two BCY8928 chains (1:2 complex)) peptide 1: A[hArg]DC[Hyp]LVNPLCLHP[dD]W[hArg]C peptide 2: Ac-C[tBuAla]PE[dK](Pent4ynoyl)PYCFADPY[Nle]CA ... 1.8

Value of Fold Improvement over Emax (BCY9173), PC3 reported for the binder BCY14335 (linker I:4-I:11-I:18, II:1-II:8-II:15 via TATA (inferred); not fully specified; also: 1:2 complex: chain 1 Lys ('Lys 8') joined to dLys(PYA)5 of two chain 2 copies via N-(acid-PEG3)-N-bis(PEG3-azide) linker) peptide 1: {Palmitoyl‑Glu‑LysN3-Pent4ynoyl}-A[hArg]DC[Hyp]LVNPLCLKP[dD]W[hArg]C peptide 2: Ac-C[tBuAla]PE[dK](Pent4ynoyl)PYCFADPY[Nle]CA is 0.94
